Measured Retention_time accompanies every entry in the list below.
experiment: Hydrophobicity of the compound assessed as retention time by reversed-phase HPLC analysis; assay type: physicochemical
Residues, ends and D or L forms follow the SMILES beside them.
Record the result as a number with its unit.

Please indicate Retention_time recorded for CCCCCCCCCCCCCCCC(=O)N[C@@H](CCCCN)C(=O)N[C@@H](CCCCN)C(=O)N[C@@H](C)C(=O)N[C@@H](CC(C)C)C(=O)N[C@@H](CCCCN)C(=O)N[C@@H](CC(C)C)C(=O)N[C@@H](C)C(=O)N[C@@H](CCCCN)C(=O)N[C@@H](CCCCN)C(=O)N1CCC[C@H]1C(=O)N[C@@H](CC(C)C)C(=O)N[C@@H](CCCCN)C(=O)N[C@@H](CC(C)C)C(=O)N[C@@H](CC(C)C)C(=O)N[C@@H](CCCCN)C(N)=O (HELM PEPTIDE1{[CCCCCCCCCCCCCCCC(=O)[*:2]].K.K.A.L.K.L.A.K.K.P.L.K.L.L.K.[am]}$$$$V2.0)
22.9 min

State its Retention_time for this compound: CCCCCC(=O)N[C@@H](CCCCN)C(=O)N[C@@H](CCCCN)C(=O)N[C@@H](C)C(=O)N[C@@H](CC(C)C)C(=O)N[C@@H](CCCCN)C(=O)N[C@@H](CC(C)C)C(=O)N[C@@H](C)C(=O)N[C@@H](CCCCN)C(=O)N[C@@H](CCCCN)C(=O)N1CCC[C@H]1C(=O)N[C@@H](CC(C)C)C(=O)N[C@@H](CCCCN)C(=O)N[C@@H](CC(C)C)C(=O)N[C@@H](CC(C)C)C(=O)N[C@@H](CCCCN)C(N)=O (HELM PEPTIDE1{[CCCCCC(=O)[*:2]].K.K.A.L.K.L.A.K.K.P.L.K.L.L.K.[am]}$$$$V2.0)
17.1 min

Indicate the recorded Retention_time value for this compound: CCCCCCCCCCCC(=O)N[C@@H](CCCCN)C(=O)N[C@@H](CCCCN)C(=O)N[C@@H](C)C(=O)N[C@@H](CC(C)C)C(=O)N[C@@H](CCCCN)C(=O)N[C@@H](CC(C)C)C(=O)N[C@@H](C)C(=O)N[C@@H](CCCCN)C(=O)N[C@@H](CCCCN)C(=O)N1CCC[C@H]1C(=O)N[C@@H](CC(C)C)C(=O)N[C@@H](CCCCN)C(=O)N[C@@H](CC(C)C)C(=O)N[C@@H](CC(C)C)C(=O)N[C@@H](CCCCN)C(N)=O (HELM PEPTIDE1{[CCCCCCCCCCCC(=O)[*:2]].K.K.A.L.K.L.A.K.K.P.L.K.L.L.K.[am]}$$$$V2.0)
20.4 min

Give the reported value of Retention_time for this record: CCCCCCCCCC(=O)N[C@@H](CCCCN)C(=O)N[C@@H](CCCCN)C(=O)N[C@@H](C)C(=O)N[C@@H](CC(C)C)C(=O)N[C@@H](CCCCN)C(=O)N[C@@H](CC(C)C)C(=O)N[C@@H](C)C(=O)N[C@@H](CCCCN)C(=O)N[C@@H](CCCCN)C(=O)N1CCC[C@H]1C(=O)N[C@@H](CC(C)C)C(=O)N[C@@H](CCCCN)C(=O)N[C@@H](CC(C)C)C(=O)N[C@@H](CC(C)C)C(=O)N[C@@H](CCCCN)C(N)=O (HELM PEPTIDE1{[CCCCCCCCCC(=O)[*:2]].K.K.A.L.K.L.A.K.K.P.L.K.L.L.K.[am]}$$$$V2.0)
19.4 min

Supply recorded Retention_time for CCCCCCCCCCCCCC(=O)N[C@@H](CCCCN)C(=O)N[C@@H](CCCCN)C(=O)N[C@@H](C)C(=O)N[C@@H](CC(C)C)C(=O)N[C@@H](CCCCN)C(=O)N[C@@H](CC(C)C)C(=O)N[C@@H](C)C(=O)N[C@@H](CCCCN)C(=O)N[C@@H](CCCCN)C(=O)N1CCC[C@H]1C(=O)N[C@@H](CC(C)C)C(=O)N[C@@H](CCCCN)C(=O)N[C@@H](CC(C)C)C(=O)N[C@@H](CC(C)C)C(=O)N[C@@H](CCCCN)C(N)=O (HELM PEPTIDE1{[CCCCCCCCCCCCCC(=O)[*:2]].K.K.A.L.K.L.A.K.K.P.L.K.L.L.K.[am]}$$$$V2.0) here.
21.7 min

Given CCCCCCCC(=O)N[C@@H](CCCCN)C(=O)N[C@@H](CCCCN)C(=O)N[C@@H](C)C(=O)N[C@@H](C)C(=O)N[C@@H](CCCCN)C(=O)N[C@@H](C)C(=O)N[C@@H](C)C(=O)N[C@@H](CCCCN)C(=O)N[C@@H](CCCCN)C(=O)N1CCC[C@H]1C(=O)N[C@@H](C)C(=O)N[C@@H](CCCCN)C(=O)N[C@@H](C)C(=O)N[C@@H](C)C(=O)N[C@@H](CCCCN)C(N)=O (HELM PEPTIDE1{[CCCCCCCC(=O)[*:2]].K.K.A.A.K.A.A.K.K.P.A.K.A.A.K.[am]}$$$$V2.0) , respond with its Retention_time.
13.7 min

Return value of Retention_time for input `CC(=O)N[C@@H](CCCCN)C(=O)N[C@@H](CCCCN)C(=O)N[C@@H](CC(C)C)C(=O)N[C@@H](CC(C)C)C(=O)N[C@@H](CCCCN)C(=O)N[C@@H](CC(C)C)C(=O)N[C@@H](CC(C)C)C(=O)N[C@@H](CCCCN)C(=O)N[C@@H](CCCCN)C(=O)N1CCC[C@H]1C(=O)N[C@@H](CC(C)C)C(=O)N[C@@H](CCCCN)C(=O)N[C@@H](CC(C)C)C(=O)N[C@@H](CC(C)C)C(=O)N[C@@H](CCCCN)C(N)=O` , no commentary.
18.2 min

Note Retention_time for the compound shown: CCCCCCCC(=O)N[C@@H](CCCCN)C(=O)N[C@@H](CCCCN)C(=O)N[C@@H](C)C(=O)N[C@@H](CC(C)C)C(=O)N[C@@H](CCCCN)C(=O)N[C@@H](CC(C)C)C(=O)N[C@@H](C)C(=O)N[C@@H](CCCCN)C(=O)N[C@@H](CCCCN)C(=O)N1CCC[C@H]1C(=O)N[C@@H](CC(C)C)C(=O)N[C@@H](CCCCN)C(=O)N[C@@H](CC(C)C)C(=O)N[C@@H](CC(C)C)C(=O)N[C@@H](CCCCN)C(N)=O (HELM PEPTIDE1{[CCCCCCCC(=O)[*:2]].K.K.A.L.K.L.A.K.K.P.L.K.L.L.K.[am]}$$$$V2.0)
18.1 min
